Quick reference for MHC (minimum hemolytic concentration, lowest concentration causing 10% hemolysis) among some compounds
- Tested on: rabbit red blood cells
- Assay type: cell-based
- reported_conditions: red cells of rabbit, 1 h
Non-standard residues stand in square brackets, D forms with d. Residues, ends and D or L forms follow the SMILES beside them. dPhe(4-Me) = Cc1ccc(C[C@@H](N)C(=O)O)cc1; d2Nal = N[C@H](Cc1ccc2ccccc2c1)C(=O)O

What value of MHC (minimum hemolytic concentration, lowest concentration causing 10% hemolysis) has been recorded for this entry: CC(=O)N[C@H](CCCNC(=N)N)C(=O)N[C@H](CCCCN)C(=O)N[C@H](CC(C)C)C(=O)N[C@H](CC(C)C)C(=O)N[C@H](Cc1ccc2ccccc2c1)C(=O)N[C@H](CCCNC(=N)N)C(=O)N[C@H](CC(C)C)C(=O)N[C@H](CCCCN)C(=O)N[C@H](Cc1ccccc1)C(=O)N[C@H](CCCNC(=N)N)C(=O)N[C@H](CCCCN)C(N)=O [LV-4] (Ac-[dR][dK][dL][dL][d2Nal][dR][dL][dK][dF][dR][dK]-NH2)
>1000 µg/mL

Would you mind doing CC(=O)N[C@H](CCCNC(=N)N)C(=O)N[C@H](CCCCN)C(=O)N[C@H](CC(C)C)C(=O)N[C@H](CC(C)C)C(=O)N[C@H](Cc1ccc(C)cc1)C(=O)N[C@H](CCCCN)C(=O)N[C@H](CC(C)C)C(=O)N[C@H](CCCCN)C(=O)N[C@H](Cc1ccc(C)cc1)C(=O)N[C@H](CCCCN)C(=O)N[C@H](CCCNC(=N)N)C(N)=O [LV-11] (Ac-[dR][dK][dL][dL][dPhe(4-Me)][dK][dL][dK][dPhe(4-Me)][dK][dR]-NH2) as well?
>1000 µg/mL

Would you mind doing CC(=O)N[C@H](CCCNC(=N)N)C(=O)N[C@H](CCCCN)C(=O)N[C@H](C)C(=O)N[C@H](C)C(=O)N[C@H](Cc1ccc2ccccc2c1)C(=O)N[C@H](CCCNC(=N)N)C(=O)N[C@H](C)C(=O)N[C@H](CCCCN)C(=O)N[C@H](Cc1ccc2ccccc2c1)C(=O)N[C@H](CCCNC(=N)N)C(=O)N[C@H](CCCCN)C(N)=O [LV-15] (Ac-[dR][dK][dA][dA][d2Nal][dR][dA][dK][d2Nal][dR][dK]-NH2) as well?
>1000 µg/mL
